- System: SK-MEL-28 melanoma
- Protocol summary: NCI-60 one-dose screen, 48 h (100 = growth as untreated, 0 = no growth, -100 = all killed)
- Test context: 10 µM unless noted
The panel holds about 83,000 compounds, 20% with a hit somewhere; the sample as a whole holds those more often.
Endpoint name: growth (%)
Numeric only. Scale: %

So what does the record say about growth for CNC(=O)O/N=C(\SC)C(=O)N(C)C ?
113

So what does the record say about growth for C[N+]12CCC34C5=CC(=O)C(=O)C=C5[N+]5(C)C(=O)CC6OCC=C(C1)C(CC32)C6C45 (centres undefined) ?
108

So what does the record say about growth for N#CCN(CC#N)[N+](=O)[O-] ?
106

So what does the record say about growth for Cc1cc[c-]cc1.Fc1c[c-]c(-c2ccccn2)c(F)c1.N#CCC[PH+](CCC#N)c1ccccc1.[Pt+2] ?
42.7

So what does the record say about growth for C[C@@]12CCCc3coc(c31)C(=O)c1cc3c(cc12)C(=O)C1=C(NCCS1(=O)=O)C3=O ?
-9.02

So what does the record say about growth for C=CC[PH+](c1ccccc1)c1ccccc1.C=CC[PH+](c1ccccc1)c1ccccc1.[Pt+2].[S-]c1ncccn1.[S-]c1ncccn1 ?
-30.9

So what does the record say about growth for C[C@]12CCC(=O)C[C@@H]1CC[C@@H]1[C@@H]2CC[C@]2(C)[C@@H](OC(=O)N(CCCl)N=O)CC[C@@H]12 ?
63.1

So what does the record say about growth for O=C(NC(Cl)=C(Cl)Cl)P(=O)(c1ccccc1)c1ccccc1 ?
99.6

So what does the record say about growth for CC1=C2[C@H]3OC(=O)[C@@H](C)[C@@H]3CC[C@@]2(C)C=CC1=O ?
122
